Molecular target: isolated, electrically stimulated rat vas deferens (Rattus norvegicus, UniProt P22909)
Construct: isolated, electrically stimulated rat vas deferens; from tissue; host or cells: isolated rat vas deferens
Sequence (P22909 1-465): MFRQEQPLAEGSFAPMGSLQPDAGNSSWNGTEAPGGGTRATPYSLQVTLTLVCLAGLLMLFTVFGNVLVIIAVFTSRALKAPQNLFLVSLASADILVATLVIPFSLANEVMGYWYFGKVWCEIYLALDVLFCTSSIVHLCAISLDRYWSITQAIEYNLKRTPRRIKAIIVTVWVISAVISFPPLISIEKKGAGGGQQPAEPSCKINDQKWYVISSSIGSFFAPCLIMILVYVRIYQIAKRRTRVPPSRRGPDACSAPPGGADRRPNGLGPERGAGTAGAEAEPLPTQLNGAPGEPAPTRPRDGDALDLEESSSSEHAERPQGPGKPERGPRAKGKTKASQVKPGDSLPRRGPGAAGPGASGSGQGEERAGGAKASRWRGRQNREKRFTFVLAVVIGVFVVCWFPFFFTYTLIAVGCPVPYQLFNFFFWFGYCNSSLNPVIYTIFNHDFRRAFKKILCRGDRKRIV
Assay: Vas Deferens Assay: antagonism of clonidine-induced inhibition of twitch height in isolated, electrically stimulated rat vas deferens
readout.name: log10(Kb) (log10 of the value in nM)
// stored as log10 of Kb expressed in nM

Study these solved cases before continuing.
>>> df
                                   molecule  readout_name  reading
0  CN1c2c(Cl)cc(Cl)cc2CC1C1=NCCN1 (stereo not shown)     log10(Kb)     1.00
1  CN1c2ccccc2CC1(C)C1=NCCN1 (stereo not shown)     log10(Kb)     1.45
2  CCOCCN1c2ccccc2CC1C1=NCCN1 (stereo not shown)     log10(Kb)     1.19
3  CN1c2ccccc2CCC1C1=NCCN1 (stereo not shown)     log10(Kb)     0.87
4  CN1c2ccc(F)cc2CC1C1=NCCN1 (stereo not shown)     log10(Kb)     0.55

Please examine the following record next.
Data point: "Cn1c(CC2=NCCN2)cc2ccccc21" ; log10(Kb) = 1.52

----------
Target: isolated, electrically stimulated rat vas deferens (Rattus norvegicus, UniProt P22909)
Construct: isolated, electrically stimulated rat vas deferens; from tissue; host or cells: isolated rat vas deferens
Sequence (P22909 1-465): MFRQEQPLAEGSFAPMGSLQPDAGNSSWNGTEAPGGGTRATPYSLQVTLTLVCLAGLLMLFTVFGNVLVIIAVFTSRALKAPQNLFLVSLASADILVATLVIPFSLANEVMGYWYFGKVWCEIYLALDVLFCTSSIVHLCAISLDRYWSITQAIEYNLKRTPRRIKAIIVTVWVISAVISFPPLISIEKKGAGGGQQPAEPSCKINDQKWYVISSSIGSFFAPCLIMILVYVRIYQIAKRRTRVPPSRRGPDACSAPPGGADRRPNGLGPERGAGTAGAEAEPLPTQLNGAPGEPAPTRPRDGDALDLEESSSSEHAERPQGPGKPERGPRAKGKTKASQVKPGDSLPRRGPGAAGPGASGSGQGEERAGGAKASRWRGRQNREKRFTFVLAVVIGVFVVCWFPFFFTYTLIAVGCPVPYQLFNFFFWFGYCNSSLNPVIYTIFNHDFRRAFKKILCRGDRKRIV
Test: Vas Deferens Assay: antagonism of clonidine-induced inhibition of twitch height in isolated, electrically stimulated rat vas deferens
Method: The α2 -adrenergic antagonist activity of the compounds of the invention was determined by three screening methods, described as follows: Results are expressed either in terms of percent inhibition at the concentration of antagonist used or as pA2 values, determined by the Schild method; cf. Tallarida and Murray, Manual of Pharmacologic Calculations, pp. 29-32 (Springer-Verlag, 1981). […]
// reported Kb per item
Give the value, in units of nM, as a plain number.

Please review the entries below; each comes with its answer.
>>> print(df.to_string())
                                   compound  reading
0  CN1c2c(Cl)cccc2CC1C1=NCCN1 (stereo not shown)     1.58
1  CCCN1c2ccccc2CC1C1=NCCN1 (stereo not shown)     1.74
2  CCN1c2ccccc2CC1C1=NCCN1 (stereo not shown)     1.23
3  c1ccc2c(c1)CC(C1=NCCN1)N2 (stereo not shown)     6.92
4  CN1c2ccc(Cl)cc2CC1C1=NCCN1 (stereo not shown)     2.75
5  CN1c2ccccc2CC1C1=NCCN1 (stereo not shown)     3.31
6  c1ccc2c(c1)CCC(C1=NCCN1)N2 (stereo not shown)     9.33
7  CCCCN1c2ccccc2CC1C1=NCCN1 (stereo not shown)     1.58
8  C[C@H]1c2ccccc2N(C)[C@@H]1C1=NCCN1 (relative stereo)      110

// field: Kb; key: C=CCN1c2ccccc2CC1C1=NCCN1 (stereo not shown) ; value = 0.851
